Where do the numbers come from? From the supplement of paper PMC11246515.

Recorded total protein half-life in vivo by entry
Assay: total protein half-life in vivo (active degradation + dilution); higher = more stable protein
Conditions: wild type E. coli NCM3722; growth: P-lim chemostat; doubling time 6 h
measured_attribute: total protein half-life in vivo (h)

- MVSRKRNSVIYRFASLLLVLMLSACSALQGTPQPAPPVTDHPQEIRRDQTQGLQRIGSVSTMVRGSPDDALAEIKAKAVAAKADYYVVVMVDETIVTGQWYSQAILYRK: 7.24
- MSDVLRPYRDLFPQIGQRVMIDDSSVVIGDVRLADDVGIWPLVVIRGDVHYVQIGARTNIQDGSMLHVTHKSSYNPDGNPLTIGEDVTVGHKVMLHGCTIGNRVLVGMGSILLDGAIVEDDVMIGAGSLVPQNKRLESGYLYLGSPVKQIRPLSDEEKAGLRYSANNYVKWKDEYLDQGNQTQP [P0A9W9]: 6.25

---

Assay: total protein half-life in vivo (active degradation + dilution); higher = more stable protein
Settings: wild type E. coli NCM3722; growth: C-lim chemostat; doubling time 3 h
measured_attribute: total protein half-life in vivo (h)

• MLKIIRAGMYTTVQDGGRHGFRQSGISHCGALDMPALRIANLLVGNDANAPALEITLGQLTVEFETDGWFALTGAGCEARLDDNAVWTGWRLPMKAGQRLTLKRPQHGMRSYLAVAGGIDVPPVMGSCSTDLKVGIGGLEGRLLKDGDRLPIGKSKRDSMEAQGVKQLLWGNRIRALPGPEYHEFDRASQDAFWRSPWQLSSQSNRMGYRLQGQILKRTTDRELLSHGLLPGVVQVPHNGQPIVLMNDAQTTGGYPRIACIIEADMYHLAQIPLGQPIHFVQCSLEEALKARQDQQRYFEQLAWRLHNEN = 3.12
• MLSRHINYFLAVAEHGSFTRAASALHVSQPALSQQIRQLEESLGVPLFDRSGRTIRLTDAGEVWRQYASRALQELGAGKRAIHDVADLTRGSLRIAVTPTFTSYFIGPLMADFYARYPSITLQLQEMSQEKIEDMLCRDELDVGIAFAPVHSPELEAIPLLTESLALVVAQHHPLAVHEQVALSRLHDEKLVLLSAEFATREQIDHYCEKAGLHPQVVIEANSISAVLELIRRTSLSTLLPAAIATQHDGLKAISLAPPLLERTAVLLRRKNSWQTAAAKAFLHMALDKCAVVGGNESR = 2.02

---

Recorded total protein half-life in vivo by entry
Test: total protein half-life in vivo (active degradation + dilution); higher = more stable protein
Settings: wild type E. coli NCM3722; growth: C-lim chemostat; doubling time 6 h
measured_attribute: total protein half-life in vivo (h)

• MATLKDIAIEAGVSLATVSRVLNDDPTLNVKEETKHRILEIAEKLEYKTSSARKLQTGAVNQHHILAIYSYQQELEINDPYYLAIRHGIETQCEKLGIELTNCYEHSGLPDIKNVTGILIVGKPTPALRAAASALTDNICFIDFHEPGSGYDAVDIDLARISKEIIDFYINQGVNRIGFIGGEDEPGKADIREVAFAEYGRLKQVVREEDIWRGGFSSSSGYELAKQMLAREDYPKALFVASDSIAIGVLRAIHERGLNIPQDISLISVNDIPTARFTFPPLSTVRIHSEMMGSQGVNLVYEKARDGRALPLLVFVPSKLKLRGTTR = 5.94
• MRIIDNLEQFRQIYASGKKWQRCVEAIENIDNIQPGVAHSIGDSLTYRVETDSATDALFTGHRRYFEVHYYLQGQQKIEYAPKETLQVVEYYRDETDREYLKGCGETVEVHEGQIVICDIHEAYRFICNNAVKKVVLKVTIEDGYFHNK [P0AC73] = 6.04
• MPGLKITLLQQPLVWMDGPANLRHFDRQLEGITGRDVIVLPEMFTSGFAMEAAASSLAQDDVVNWMTAKAQQCNALIAGSVALQTESGSVNRFLLVEPGGTVHFYDKRHLFRMADEHLHYKAGNARVIVEWRGWRILPLVCYDLRFPVWSRNLNDYDLALYVANWPAPRSLHWQALLTARAIENQAYVAGCNRVGSDGNGCHYRGDSRVINPQGEIIATADAHQATRIDAELSMAALREYREKFPAWQDADEFRLW = 5.22
